As an illustration, consider measured GI50 for molecules on NCI-H23.
Respond with the bare value in µM.

Worked set:
In [3]: df
Out[3]:
                               input_smiles  endpoint_name  assay_result
0  Cc1ccc(NC(=O)Cc2ccc(/C=C/C(=O)c3ncc[nH]3)cc2)cc1           GI50          5.85
1  Cn1ccnc1C(=O)/C=C/c1ccc(CC(=O)Nc2ccc(Cl)cc2)cc1           GI50          2.04
2  CCn1ccnc1C(=O)/C=C/c1ccc(CC(=O)Nc2ccc(F)cc2)cc1           GI50          4.25
3  O=C(Cc1ccc(/C=C/C(=O)c2ncc[nH]2)cc1)Nc1ccc(C(F)(F)F)cc1           GI50          3.42
4  Cn1ccnc1C(=O)/C=C/c1ccc(CC(=O)Nc2ccccc2)cc1           GI50          3.24

Give the value of GI50 reported for the following: O=C(Cc1ccc(/C=C/C(=O)c2ncc[nH]2)cc1)Nc1ccc(F)cc1 1.91

Give the value of GI50 reported for the following: O=C(Cc1ccc(/C=C/C(=O)c2ncc[nH]2)cc1)Nc1ccc(Cl)cc1 2.97

Give the value of GI50 reported for the following: Cn1ccnc1C(=O)/C=C/c1ccc(CC(=O)Nc2ccc(F)cc2)cc1 3.04

----------
- System: DU-145
endpoint.name: GI50 (nM)
Respond with the bare value in nM.

>>> print(df.to_string())
                                   compound  readout_units  assay_result
0  Cn1ccnc1C(=O)/C=C/c1ccc(CC(=O)Nc2ccccc2)cc1 [Compound 27]             nM          1100

# next compound below
Under DU-145, report GI50 for O=C(Cc1ccc(/C=C/C(=O)c2ncc[nH]2)cc1)Nc1ccc(Cl)cc1 [Compound 25] 1700

----------
As an illustration, consider measured GI50 for molecules on U251.
Note to self: number, then unit, no commentary.

Worked set:
>>> df
                               input_smiles  assay_result
0  Cn1ccnc1C(=O)/C=C/c1ccc(CC(=O)Nc2ccc(Cl)cc2)cc1        1.1 µM
1  Cn1ccnc1C(=O)/C=C/c1ccc(CC(=O)Nc2ccc(F)cc2)cc1        1.4 µM
2  Cc1ccc(NC(=O)Cc2ccc(/C=C/C(=O)c3ncc[nH]3)cc2)cc1       1.59 µM

# next molecule below
Under U251, report GI50 for CCn1ccnc1C(=O)/C=C/c1ccc(CC(=O)Nc2ccc(F)cc2)cc1 1.88 µM

----------
As an illustration, consider measured GI50 for molecules on NCI-322M.
Respond with the bare value in µM.

Worked set:
>>> df
                                   molecule  endpoint_name  assay_result
0  O=C(Cc1ccc(/C=C/C(=O)c2ncc[nH]2)cc1)Nc1ccc(Cl)cc1 [Compound 25]           GI50             4
1  Cn1ccnc1C(=O)/C=C/c1ccc(CC(=O)Nc2ccc(Cl)cc2)cc1 [Compound 30]           GI50          3.99
2  CCn1ccnc1C(=O)/C=C/c1ccc(CC(=O)Nc2ccc(F)cc2)cc1 [Compound 31]           GI50          3.49

# next molecule below
Under NCI-322M, report GI50 for Cn1ccnc1C(=O)/C=C/c1ccc(CC(=O)Nc2ccccc2)cc1 [Compound 27] 2.57
